Target: T1, Flag-PTHR1-YFP (UniProt Q03431 27-593)
T1 sequence (looked up): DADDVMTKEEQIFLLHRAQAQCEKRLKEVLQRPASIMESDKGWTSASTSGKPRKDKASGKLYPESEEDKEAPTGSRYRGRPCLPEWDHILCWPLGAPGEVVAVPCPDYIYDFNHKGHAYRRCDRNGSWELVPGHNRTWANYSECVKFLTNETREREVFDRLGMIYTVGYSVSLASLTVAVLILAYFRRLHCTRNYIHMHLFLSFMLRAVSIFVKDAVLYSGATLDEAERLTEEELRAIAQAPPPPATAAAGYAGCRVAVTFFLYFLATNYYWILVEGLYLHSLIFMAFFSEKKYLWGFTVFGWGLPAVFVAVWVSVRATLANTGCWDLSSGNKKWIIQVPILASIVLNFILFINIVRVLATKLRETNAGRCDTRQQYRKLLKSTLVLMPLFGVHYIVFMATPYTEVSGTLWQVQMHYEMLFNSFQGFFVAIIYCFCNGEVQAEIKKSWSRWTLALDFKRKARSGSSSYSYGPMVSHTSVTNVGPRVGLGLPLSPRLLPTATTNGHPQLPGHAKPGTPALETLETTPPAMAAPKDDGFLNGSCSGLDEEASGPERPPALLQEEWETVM
Assay: cell-based or functional assay
ENDPOINT_NAME: arrestin 2 recruitment (BRET): -log10EC50

Record excerpt, results attached:
INSERT INTO assay_data (binder, measured) VALUES
  ('AVAEIQLMHQRAKWELQEIGIAITLRLLARYI [R2-43]', '-8.03 -log10EC50 (as headed)'),
  ('AVAEIQLMHQRAKWDVLIELAKLLAELLRRYH [R2-47]', '-5.77 -log10EC50 (as headed)'),
  ('AVAEIQLMHQRAKWSLREELEKLLKELLKEYI [R2-44]', '-8.46 -log10EC50 (as headed)');

Entry AVAEIQLMHQRAKWSILEELLKILTALLDEYI [R2-46] ; arrestin 2 recruitment (BRET): -log10EC50 = -6.73 -log10EC50 (as headed)

For reference, reported arrestin 2 recruitment (BRET): -log10EC50 for AVAEIQLMHQRAKWEIQEIGIKITLELLKEYI [R2-37] stands at -5.86 -log10EC50 (as headed)

The measured arrestin 2 recruitment (BRET): -log10EC50 associated with AVAEIQLMHQRAKWGLEIELLKLLLSLLKEYI [R2-45] reads -5.76 -log10EC50 (as headed)

Input AVAEIQLMHQRAKWGVELQLKVDLRRILEDVY [R2-35] . Output arrestin 2 recruitment (BRET): -log10EC50: -3.46 -log10EC50 (as headed)

response.value for AVAEIQLMHQRAKWKILEELLKILIDLLKQYI [R2-48] (field: arrestin 2 recruitment (BRET): -log10EC50) = -15.2 -log10EC50 (as headed)

GET /value?item= GVAMLQIMHDLAKIKQELELKDSMKKILEDVL [R2-50] &field=arrestin 2 recruitment (BRET): -log10EC50 returns -10.5 -log10EC50 (as headed)

Looking up AVAEIQLMHQRAKWAIQEIGIKITRELLERYL [R2-42] , I see its arrestin 2 recruitment (BRET): -log10EC50 listed as -8.37 -log10EC50 (as headed)

The recorded arrestin 2 recruitment (BRET): -log10EC50 for AVAEIQLMHQRAKWRLEIELLKKLKEILKDVY [R2-34] is -8.41 -log10EC50 (as headed)

arrestin 2 recruitment (BRET): -log10EC50 recorded for this binder, AVAEIQLMHQRAKWKLELELKAFLDQILKDVL [R2-36] , is -8.7 -log10EC50 (as headed)

In plain terms, AVAEIQLMHQRAKWDLLIELVKLLHELLKEYI [R2-40] has a documented arrestin 2 recruitment (BRET): -log10EC50 of -5.85 -log10EC50 (as headed)

So, AVAEIQLMHQRAKWELQEIGIKITLDLLEAYL [R2-39] ? Its arrestin 2 recruitment (BRET): -log10EC50 was -7.7 -log10EC50 (as headed)
